Data origin: ChEMBL document CHEMBL1201862

# Test system: RXF 393
# test summary: NCI tumour cell line growth inhibition, 48 h
Active and inactive are the calls of the source. Cut-off read from the data, not from the text of the source: active = GI50 up to about 1.1 µM and inactive = higher.
measurement label: GI50

# count of solved cases: 3
Cc1cc(C)c2c(c1)CN1CN2Cc2cc(C)cc(C)c21: 6.68 µM (inactive)
Cc1cc2oc(-c3ccccc3)c(C)c(=O)c2c2c1OC(C)(C)S2: 70.3 µM (inactive)
CC(=O)OCC1OC(n2cc(F)c(=O)[nH]c2=O)C(OC(C)=O)C1OC(C)=O (stereo unspecified): 45.9 µM (inactive)

Which GI50 value is on record for "COc1cc(C)cc(C(=O)OCc2ccccc2)c1C1=C(Cl)C(=O)C(Cl)=CC1=O" ?
> 10 µM (inactive)

Request: "C/C(=N/NC(=S)N1CCCC1)c1cccc(/C(C)=N\NC(=S)N2CCCC2)n1"
1.32 µM (inactive)

Follow-up entry: CCOP(=O)(OCC)OC1c2[nH]ccc2-c2cc(C(=O)OC)[nH]c2C1OC (stereo unspecified)
> 100 µM (inactive)

Then this compound: "C[C@]12CC[C@@H]3c4ccc(OCC(=O)O)cc4CC[C@H]3[C@@H]1CCC2=O"
> 100 µM (inactive)

Then what about the compound "CCOC(=O)Cn1nnc2cc(Nc3c(C)[n+]([O-])c4cc(F)c(OCC)cc4[n+]3[O-])ccc21" ?
31.8 µM (inactive)

Note, next up: "CN1CCN(c2ccc3c(c2)NCC(=O)N3)CC1"
> 100 µM (inactive)

// query: NC12Oc3cc(O)cc(O)c3C1(c1ccc(Cl)cc1)c1c(O)cc(O)cc1O2 (stereo unspecified)
32.3 µM (inactive)

Moving on to the next compound: "Nc1ccccc1NC(=O)c1ccc(CNC(=O)OCc2cccnc2)cc1"
2.16 µM (inactive)
